experiment: Example 3: pharmacokinetic profile after a single IV bolus, three-compartment open model; type: in vivo, human; conditions: male, human, plasma; IV bolus, supine; read-out: observed Tmax
Value Kind: Tmax

Enquiry: Could you share which Tmax value was measured for CNC(=O)c1cnn(-c2nc(N)c3ncn([C@@H]4O[C@H](CO)[C@@H](O)[C@H]4O)c3n2)c1 [CVT-3146] ?
Return: 1 to 4 min

* * *

assay: Example 3: pharmacokinetic profile after a single IV bolus, three-compartment open model; assay type: in vivo, human; details: human, plasma, intravenous, 3 ug/kg, N=4; Mean (SD); read-out: Vss
Value Kind: Vd (L)
Answer with a number only, understood to be in L.

Enquiry: Could you share which Vd value was measured for CNC(=O)c1cnn(-c2nc(N)c3ncn([C@@H]4O[C@H](CO)[C@@H](O)[C@H]4O)c3n2)c1 ?
Return: 90

* * *

assay: Example 3: pharmacokinetic profile after a single IV bolus, three-compartment open model; assay type: in vivo, human; details: male, human, plasma, intravenous, 30 ug/kg, N=3; Mean (SD)
Value Kind: clearance (mL/min)
Answer with a number only, understood to be in mL/min.

Enquiry: Could you share which clearance value was measured for CNC(=O)c1cnn(-c2nc(N)c3ncn([C@@H]4O[C@H](CO)[C@@H](O)[C@H]4O)c3n2)c1 [CVT-3146] ?
Return: 1020

* * *

test: Example 3: pharmacokinetic profile after a single IV bolus, three-compartment open model; assay type: in vivo, human; conditions: human, plasma, intravenous, Total (doses 1-30 µg/kg), N=22; Mean (SD); read-out: a Half-life
Value Kind: half-life (min)
Answer with a number only, understood to be in min.

Enquiry: Could you share which half-life value was measured for CNC(=O)c1cnn(-c2nc(N)c3ncn([C@@H]4O[C@H](CO)[C@@H](O)[C@H]4O)c3n2)c1 [CVT-3146] ?
Return: 3.73

* * *

experiment: Example 3: pharmacokinetic profile after a single IV bolus, three-compartment open model; type: in vivo, human; conditions: male, human, plasma, intravenous, 3 ug/kg, N=4; Mean (SD)
Value Kind: clearance (mL/min)
Answer with a number only, understood to be in mL/min.

Enquiry: Could you share which clearance value was measured for CNC(=O)c1cnn(-c2nc(N)c3ncn([C@@H]4O[C@H](CO)[C@@H](O)[C@H]4O)c3n2)c1 ?
Return: 668

* * *

assay: Example 3: pharmacokinetic profile after a single IV bolus, three-compartment open model; type: in vivo, human; conditions: human, plasma, intravenous, 10 ug/kg, N=4; Mean (SD); read-out: a Half-life
Value Kind: half-life (min)
Answer with a number only, understood to be in min.

Enquiry: Could you share which half-life value was measured for CNC(=O)c1cnn(-c2nc(N)c3ncn([C@@H]4O[C@H](CO)[C@@H](O)[C@H]4O)c3n2)c1 ?
Return: 4.15

* * *

test: Example 3: pharmacokinetic profile after a single IV bolus, three-compartment open model; type: in vivo, human; conditions: human, plasma, intravenous, 30 ug/kg, N=3; Mean (SD); read-out: λ Half-life
Value Kind: half-life

Enquiry: Could you share which half-life value was measured for CNC(=O)c1cnn(-c2nc(N)c3ncn([C@@H]4O[C@H](CO)[C@@H](O)[C@H]4O)c3n2)c1 [CVT-3146] ?
Return: 1.66 h

* * *

Assay: Example 3: pharmacokinetic profile after a single IV bolus, three-compartment open model
Assay type: in vivo, human
Conditions: male, human, plasma, intravenous, 1 ug/kg, N=3; Mean (SD)
From the text: This Example is a study performed to evaluate (1) the maximum tolerated dose of CVT-3146 and (2) the pharmacokinetic profile of CVT-3146 in healthy volunteers, after a single IV bolus dose. […] Patient safety was monitored by ECG, laboratory assessments, and collection of vital signs and adverse events. […] Pharmacodynamics: • The study evaluated the relationship of changes in heart rate to dose in both standing and supine positions and plasma concentration in the supine position. […]
Value Kind: clearance (mL/min)
Answer with a number only, understood to be in mL/min.

Enquiry: Could you share which clearance value was measured for CNC(=O)c1cnn(-c2nc(N)c3ncn([C@@H]4O[C@H](CO)[C@@H](O)[C@H]4O)c3n2)c1 [CVT-3146] ?
Return: 737

* * *

experiment: Example 3: pharmacokinetic profile after a single IV bolus, three-compartment open model; format: in vivo, human; settings: human, plasma, intravenous, 1 ug/kg, N=3; Mean (SD); read-out: a Half-life
Value Kind: half-life (min)
Answer with a number only, understood to be in min.

Enquiry: Could you share which half-life value was measured for CNC(=O)c1cnn(-c2nc(N)c3ncn([C@@H]4O[C@H](CO)[C@@H](O)[C@H]4O)c3n2)c1 [CVT-3146] ?
Return: 2.14

* * *

Experiment: Example 3: pharmacokinetic profile after a single IV bolus, three-compartment open model
Type: in vivo, human
Conditions: male, human, plasma, intravenous, 10 ug/kg, N=4; Mean (SD)
Source text: This Example is a study performed to evaluate (1) the maximum tolerated dose of CVT-3146 and (2) the pharmacokinetic profile of CVT-3146 in healthy volunteers, after a single IV bolus dose. […] Patient safety was monitored by ECG, laboratory assessments, and collection of vital signs and adverse events. […] Pharmacodynamics: • The study evaluated the relationship of changes in heart rate to dose in both standing and supine positions and plasma concentration in the supine position. […]
Value Kind: clearance (mL/min)
Answer with a number only, understood to be in mL/min.

Enquiry: Could you share which clearance value was measured for CNC(=O)c1cnn(-c2nc(N)c3ncn([C@@H]4O[C@H](CO)[C@@H](O)[C@H]4O)c3n2)c1 ?
Return: 841

* * *

experiment: Example 3: pharmacokinetic profile after a single IV bolus, three-compartment open model; format: in vivo, human; settings: human, plasma, intravenous, Total (doses 1-30 µg/kg), N=22; Mean (SD); read-out: β Half-life
Value Kind: half-life (min)
Answer with a number only, understood to be in min.

Enquiry: Could you share which half-life value was measured for CNC(=O)c1cnn(-c2nc(N)c3ncn([C@@H]4O[C@H](CO)[C@@H](O)[C@H]4O)c3n2)c1 ?
Return: 27.2

The reported numbers originate from patent EP1708721B1.
